# Tested on: NOMO1
# method: cell viability relative to DMSO control; higher = less cytotoxic
# appliedConditions: RPMI 5 mM glucose + 10% FBS; 48 h; 46.1 µM
endpoint: cell viability

Name the recorded cell viability for `CN(C)CCc1c[nH]c2ccc(C[C@H]3COC(=O)N3)cc12` .
12.9%

Next molecule: `CC(C)n1nc(-c2ccc3oc(N)nc3c2)c2c(N)ncnc21`
34.4%

Next molecule: `C\C1=C\N([C@H]2C[C@H](N=[N+]=[N-])[C@@H](CO)O2)C(=O)NC1=O`
10.2%

Next molecule: `Cn1cc(-c2ccc3nnc(C(F)(F)c4ccc5ncccc5c4)n3n2)cn1`
87.2%

Next molecule: `ClC1=CC(=CC=C1)N2CCN(CCCN3\N=C4\C=C/C=C\N4C3=O)CC2`
137%

Next molecule: `CO[C@H]1C[C@@H]2CC[C@@H](C)[C@@](O)(O2)C(=O)C(=O)N2CCCC[C@H]2C(=O)O[C@H]([C@H](C)C[C@@H]2CC[C@@H](OC(=O)C(C)(CO)CO)[C@H](OC)C2)CC(=O)[C@H](C)/C=C(\C)[C@@H](O)[C@@H](OC)C(=O)[C@H](C)C[C@H](C)/C=C/C=C/C=C/1C`
60.3%

Next molecule: `OC(=O)\C1=C\N(C2=CC=C(F)C=C2)C3=C(C=C(F)C(=C3)N4CCNCC4)C1=O`
94.6%

====

# Tested on: SEM cells
# method: cell viability relative to DMSO control; higher = less cytotoxic
# appliedConditions: RPMI 5 mM glucose + 10% dialyzed FBS; 48 h; 0.19 µM
endpoint: cell viability (%)
Just the number please, in %, no unit attached.

Name the recorded cell viability for `N[S+](=O)([O-])c1cc(Cl)c(Cl)c([S+](N)(=O)[O-])c1` .
97.9

Next compound: `O=C1\C=C/C[C@@H]2[C@H]3CCCN4CCC[C@@H](CN12)[C@@H]34`
81.8

Next compound: `C=CC1=C(C(=O)O)N2C(=O)[C@@H](NC(=O)/C(=N\O)c3csc(N)n3)[C@H]2SC1`
107

Next compound: `O=C(NC[C@H](O)CN1CCc2ccccc2C1)c1cc(NC2COC2)ncn1`
81

Next compound: `CN(C/C=C/C#CC(C)(C)C)Cc1cccc2ccccc12`
95.6

Next compound: `CC(=O)O[C@@]1(CC[C@H]2[C@@H]3\C=C(C)/C4=C/C(=O)CC[C@]4(C)[C@H]3CC[C@]12C)C(C)=O`
100

Next compound: `CC[C@H]1/C=C\C=C/C[C@@H](C)[C@H](O)[C@@](C)(O)C(=O)[C@@H](C)[C@H](O)[C@@H](C)C(=O)[C@@H](C)[C@H](O)[C@@H](C)/C=C/C(=O)O[C@@H]2[C@H](C)[C@H](CC1)O[C@]1(CC[C@H](C)[C@H](C[C@@H](C)O)O1)[C@H]2C`
94.2

Next compound: `CCn1c(-c2nonc2N)nc2cncc(CNC3CCNCC3)c21`
115

====

# Tested on: SEM cells
# method: AUC of viability dose-response curve (% viability x log10 dose units); higher = less sensitive
# appliedConditions: HPLM + 10% dialyzed FBS; 48 h
For each of the compounds below, state its AUC of viability dose-response curve.
Give only the figure.

Name the recorded AUC of viability dose-response curve for CC(=O)CC(C1=CC=CC=C1)C/2=C(O)/C3=CC=CC=C3OC2=O (stereo unspecified) .
433

Next compound: `CC(C)Nc1cc(-c2c[nH]c(C(=O)N[C@H](CO)c3cccc(Cl)c3)c2)c(Cl)cn1`
436

Next compound: `Cn1c(Nc2ccc(C(F)(F)F)cc2)nc2cc(Oc3ccnc(-c4nc(C(F)(F)F)c[nH]4)c3)ccc21`
402

Next compound: `Cc1c(O)cccc1C(=O)N[C@@H](CSc1ccccc1)[C@H](O)CN1C[C@H]2CCCC[C@H]2C[C@H]1C(=O)NC(C)(C)C`
426

Next compound: `ClC1=CC(=CC=C1)N2CCN(CCCN3\N=C4\C=C/C=C\N4C3=O)CC2`
419

Next compound: `CC1=CC=CC=C1CN2C(=O)C/3=C(/CCN(CC4=CC=CC=C4)C3)N\5CC\N=C25`
410

====

# Tested on: SEM cells
# method: cell viability relative to DMSO control; higher = less cytotoxic
# appliedConditions: RPMI 5 mM glucose + 10% dialyzed FBS; 48 h; 0.000781 µM
endpoint: cell viability (%)
Just the number please, in %, no unit attached.

Name the recorded cell viability for `CCOC(=O)[C@H](CCc1ccccc1)N[C@@H](C)C(=O)N1CCC[C@H]1C(=O)O` .
119

Next compound: `O=C(NC[C@H](O)CN1CCc2ccccc2C1)c1cc(NC2COC2)ncn1`
59

Next compound: `C[C@@H](O)[C@@H]1[C@H]2[C@@H](C)\C(=C(/N2C1=O)C(=O)OCOC(=O)C(C)(C)C)SC3CN(C3)/C4=N/CCS4`
82.5

Next compound: `OC[C@H](Cc1ccccc1)Nc1nc(Oc2ccc3c(c2)CCC3)nc2c1ncn2Cc1ccc(-c2ccccc2)cc1`
80

Next compound: `c1cc(CN2CCCNCCNCCCNCC2)ccc1CN1CCCNCCNCCCNCC1`
94.1

Next compound: CNC1[C@@H](O)C(O[C@@H]2C(O)C(O[C@H]3O[C@H]([C@@H](C)NC)CC[C@H]3N)[C@@H](N)C[C@H]2N)OC[C@]1(C)O (stereo partly drawn)
102

Next compound: `CCN(CC)CCCCNc1nc2cc(Cl)c(Cl)cc2nc1-c1ccc(-c2cccs2)s1`
106

Next compound: C1CCC(C(CC2CCCCN2)C2CCCCC2)CC1 (stereo not drawn)
85.7

Next compound: `Cc1c(Cn2c(C)nc3c(C(=O)O)cc(N4CCOCC4)cc32)cccc1C(F)(F)F`
94.1

Next compound: `COc1cc2c(Oc3ccc(NC(=O)C4(C(=O)Nc5ccc(F)cc5)CC4)cc3F)ccnc2cc1OCCCN1CCOCC1`
41.9

Next compound: `Oc1ccc(C2CCN(c3ccnc4ccccc34)CC2)cc1O`
54.9

Next compound: `Clc1cc(Cl)cc(CNc2ncncc2-c2ccc3c(c2)OCO3)c1`
90.5

Next compound: COc1cc(O)c2c(c1)C1OC1C[C@H](O)[C@H](O)C(=O)/C=C\C[C@H](C)OC2=O (stereo partly drawn)
101

Next compound: `Cn1cc(-c2ccc3nnc(C(F)(F)c4ccc5ncccc5c4)n3n2)cn1`
96

Next compound: `CCC(=O)OCC(=O)[C@@]1(OC(=O)CC)[C@@H](C)C[C@H]2[C@@H]3CCC4=CC(=O)C=C[C@]4(C)[C@@]3(F)[C@@H](O)C[C@@]21C`
116

Next compound: `CCCCNc1cc(C(=O)O)cc([S+](N)(=O)[O-])c1Oc1ccccc1`
108

Next compound: `O=C1Nc2cc(Br)ccc2/C1=C1/Nc2ccccc2/C1=N\O`
111

Next compound: `N=C(N)NC(=O)c1nc(Cl)c(N)nc1N`
101

====

# Tested on: SEM cells
# method: cell viability relative to DMSO control; higher = less cytotoxic
# appliedConditions: HPLM + 10% dialyzed FBS; 48 h; 1.71 µM
endpoint: cell viability (%)
Just the number please, in %, no unit attached.

Name the recorded cell viability for `O=C1Nc2ccc(Cl)cc2[C@@](C#CC2CC2)(C(F)(F)F)O1` .
80.2

Next molecule: `COc1cc(Nc2ncc(F)c(Nc3ccc4c(n3)NC(=O)C(C)(C)O4)n2)cc(OC)c1OC`
57.7

Next molecule: `CC(=O)N1CCN(c2ccc(OCc3nn(C)c(C)c3-c3cccc4c(CCCOc5cccc6ccccc56)c(C(=O)O)n(Cc5cccnc5)c34)cc2)CC1`
120

Next molecule: `CC(C)(C)C(=O)Oc1ccc([S+](=O)([O-])Nc2ccccc2C(=O)NCC(=O)O)cc1`
58.9

Next molecule: `CC(=O)N1CCN(c2ccc(OC[C@H]3CO[C@](Cn4ccnc4)(c4ccc(Cl)cc4Cl)O3)cc2)CC1`
92.8

Next molecule: `CC(C)C[C@H](NC(=O)[C@@H](NC(=O)c1cccc(-c2ccccc2)n1)[C@@H](C)O)B(O)O`
8.47

Next molecule: `CN(C)CCc1c[nH]c2ccc(C[C@H]3COC(=O)N3)cc12`
88.2

Next molecule: `C[C@@H]1CN[C@H]2[C@@H](C)[C@@]\3(CC[C@H]\4[C@@H]5C/C=C6/C[C@@H](O)CC[C@]6(C)[C@H]5CC4=C3C)O[C@@H]2C1`
114

Next molecule: `O=C1\C=C/C[C@@H]2[C@H]3CCCN4CCC[C@@H](CN12)[C@@H]34`
112

Next molecule: `C[C@H]1C[C@H]2[C@@H]3CCC4=CC(=O)C=C[C@]4(C)[C@@]3(F)[C@@H](O)C[C@]2(C)[C@@]1(O)C(=O)CO`
27.5

Next molecule: CC1(C)OC2CC3C4CC(F)C/5=C/C(=O)/C=C\C5(C)C4C(O)CC3(C)[C@@]2(O1)C(=O)CO (some centres not stated)
65.9

Next molecule: `CCn1c(-c2nonc2N)nc2cncc(CNC3CCNCC3)c21`
109

Next molecule: `COc1cc2c(Oc3ccc(NC(=O)C4(C(=O)Nc5ccc(F)cc5)CC4)cc3F)ccnc2cc1OCCCN1CCOCC1`
16.1

Next molecule: `C[C@@]12O[C@@H](C[C@]1(O)CO)n1c3ccccc3c3c4c(c5c6ccccc6n2c5c31)CNC4=O`
18.4

Next molecule: `O=C(Nc1cccc(Nc2ncc(Br)c(NCCc3cnc[nH]3)n2)c1)N1CCCC1`
17.4

Next molecule: `O=C(CO)N1CCC(c2n[nH]c(-c3ccc(Cl)cc3)c2-c2ccncn2)CC1`
101

Next molecule: `N=C(N)NC(=O)c1nc(Cl)c(N)nc1N`
114
